Where these numbers come from: patent US9532983B2

# Target Entity: 5HT3 (Homo sapiens)
# Construct: expressed in transfected cells
# Sequence (P46098 24-478): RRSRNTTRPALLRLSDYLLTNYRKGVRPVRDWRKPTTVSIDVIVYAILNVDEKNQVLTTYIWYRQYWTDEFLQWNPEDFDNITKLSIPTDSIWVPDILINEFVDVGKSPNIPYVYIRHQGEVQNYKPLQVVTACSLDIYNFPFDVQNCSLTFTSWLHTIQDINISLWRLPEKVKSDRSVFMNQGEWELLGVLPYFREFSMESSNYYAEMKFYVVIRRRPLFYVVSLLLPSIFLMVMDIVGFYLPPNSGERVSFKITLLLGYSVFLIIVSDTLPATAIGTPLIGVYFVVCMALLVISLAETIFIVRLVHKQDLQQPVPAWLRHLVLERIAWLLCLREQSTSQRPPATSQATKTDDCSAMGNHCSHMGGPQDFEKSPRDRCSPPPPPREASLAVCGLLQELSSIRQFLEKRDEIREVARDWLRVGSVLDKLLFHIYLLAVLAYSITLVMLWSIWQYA
# Assay Overview: Secondary binding assay, Ki determination: 5HT3
Measured Parameter: Ki (nM)
Record the value in nM, omitting the unit from your answer.

Fill blank: measured Ki of the compound COc1cc2oc(C(=O)N(CCCN3CCCCC3)c3ccccc3)c(C)c2cc1OC is ____. 7610

====

# Target Entity: Alpha2A (Homo sapiens, UniProt P08913)
# Construct: expressed in transfected cells
# Sequence (P08913 whole entry): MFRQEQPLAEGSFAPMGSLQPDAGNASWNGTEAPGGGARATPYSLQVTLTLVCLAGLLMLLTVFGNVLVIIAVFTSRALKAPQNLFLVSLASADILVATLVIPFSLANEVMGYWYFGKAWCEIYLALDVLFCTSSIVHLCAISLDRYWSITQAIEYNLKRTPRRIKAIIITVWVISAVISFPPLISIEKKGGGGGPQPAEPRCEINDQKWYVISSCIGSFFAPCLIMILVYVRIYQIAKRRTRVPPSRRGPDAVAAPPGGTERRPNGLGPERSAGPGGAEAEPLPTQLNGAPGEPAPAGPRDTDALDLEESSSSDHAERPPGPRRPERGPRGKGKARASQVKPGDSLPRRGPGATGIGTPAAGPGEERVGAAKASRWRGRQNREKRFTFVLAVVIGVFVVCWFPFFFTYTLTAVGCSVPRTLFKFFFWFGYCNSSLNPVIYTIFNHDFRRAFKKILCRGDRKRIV
# Assay Overview: Secondary binding assay, Ki determination: Alpha2A
Measured Ki values are reported for all entries that follow.
Record the value in nM, omitting the unit from your answer.

# query: Ki | item Cc1c(C(=O)N(CCCN2CCCCC2)c2ccccc2)oc2ccccc12 | system: Alpha2A (Homo sapiens, UniProt P08913) 1230

# query: Ki | item COc1ccc2c(C)c(C(=O)N(CCCN3CCCCC3)c3ccccc3)oc2c1 | system: Alpha2A (Homo sapiens, UniProt P08913) 653

====

Measured cytotoxicity at 24 h, 1 nM values are reported for all entries that follow.
# Assay Overview: Cell viability assay (MTT) in MA-10 cells
# Format: cell-based, mouse
# Experimental Setup: mouse, MA-10 Leydig cells, 1 nM, read-out: decrease in cell viability
Record the value in %, omitting the unit from your answer.

- Record Smiles: "COc1cc2oc(C(=O)N(CCCN3CCCCC3)c3ccccc3)c(C)c2cc1OC"
  Measured Parameter: "cytotoxicity at 24 h, 1 nM"
  Reported: 3.5

Please look at the following compound next.
Fill blank: measured cytotoxicity at 24 h, 1 nM of the compound Cc1c(C(=O)N(CCCN2CCCCC2)c2ccccc2)oc2ccccc12 is ____. 28

====

# Target Entity: σ1 receptor (Rattus norvegicus, UniProt Q9R0C9)
# Sequence (Q9R0C9 whole entry): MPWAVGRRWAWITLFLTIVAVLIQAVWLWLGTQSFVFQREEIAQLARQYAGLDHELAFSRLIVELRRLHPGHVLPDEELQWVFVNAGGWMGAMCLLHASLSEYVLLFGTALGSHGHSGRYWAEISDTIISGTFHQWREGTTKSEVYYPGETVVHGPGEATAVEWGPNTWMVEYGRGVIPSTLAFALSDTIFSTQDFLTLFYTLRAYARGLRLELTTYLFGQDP
Measured Parameter: pKi
The quantity pKi is defined as the negative base-10 logarithm of the molar concentration.

# query: pKi | item COc1ccc2c(C)c(C(=O)N(CCCN3CCCCC3)c3ccccc3)oc2c1 | system: σ1 receptor (Rattus norvegicus, UniProt Q9R0C9) 7.47

====

# Target Entity: σ2 receptor (Rattus norvegicus, UniProt Q5U3Y7)
# Construct: PC12 cell homogenates for σ2 receptors were added to the wells; endogenous in cells
# Sequence (Q5U3Y7 whole entry): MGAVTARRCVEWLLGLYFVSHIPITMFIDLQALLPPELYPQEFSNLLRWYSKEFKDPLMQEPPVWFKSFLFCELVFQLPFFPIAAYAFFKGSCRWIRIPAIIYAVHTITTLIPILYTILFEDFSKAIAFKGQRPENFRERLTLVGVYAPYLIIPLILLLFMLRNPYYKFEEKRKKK
# Assay Overview: Secondary binding assay, Ki determination at σ2 receptor ([3H]DTG, PC12 cell homogenates)
# Experimental Setup: read-out: σ-2 (Ki)
Measured Parameter: Ki
Give your result as the value with the unit written after it.

- Compound: "COc1ccc2c(C)c(C(=O)N(CCCN3CCCCC3)c3ccccc3)oc2c1 [KSCM-11]"
  Target Entity: "σ2 receptor (Rattus norvegicus, UniProt Q5U3Y7)"
  Ki: "41 nM"
- Compound: "COc1cc2oc(C(=O)N(CCCN3CCCCC3)c3ccccc3)c(C)c2cc1OC [KSCM-1]"
  Target Entity: "σ2 receptor (Rattus norvegicus, UniProt Q5U3Y7)"
  Ki: "528 nM"

Please look at the following compound next.
Fill blank: measured Ki of the compound Cc1c(C(=O)N(CCCN2CCCCC2)c2ccccc2)oc2ccccc12 [KSCM-5] is ____. 16 nM

====

# Target Entity: 5-HT2B (Homo sapiens)
# Construct: expressed in transfected cells
# Sequence (P41595 whole entry, species assumed): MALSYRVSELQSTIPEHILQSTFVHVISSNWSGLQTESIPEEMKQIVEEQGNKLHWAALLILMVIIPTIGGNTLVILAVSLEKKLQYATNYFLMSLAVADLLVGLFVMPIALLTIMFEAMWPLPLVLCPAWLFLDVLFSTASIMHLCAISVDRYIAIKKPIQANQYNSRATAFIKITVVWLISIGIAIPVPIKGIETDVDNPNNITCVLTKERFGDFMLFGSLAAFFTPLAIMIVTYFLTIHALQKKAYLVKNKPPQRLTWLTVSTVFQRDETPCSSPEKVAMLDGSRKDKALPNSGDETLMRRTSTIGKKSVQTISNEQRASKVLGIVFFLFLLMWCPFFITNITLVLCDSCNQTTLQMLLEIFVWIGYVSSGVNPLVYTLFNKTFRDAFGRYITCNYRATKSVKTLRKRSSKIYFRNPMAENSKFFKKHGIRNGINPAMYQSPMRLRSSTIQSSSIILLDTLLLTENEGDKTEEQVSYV
# Assay Overview: Secondary binding assay, Ki determination: 5-HT2B
Measured Parameter: Ki (nM)
Record the value in nM, omitting the unit from your answer.

- Compound: "COc1ccc2c(C)c(C(=O)N(CCCN3CCCCC3)c3ccccc3)oc2c1 [KSCM-11]"
  Measured Parameter: "Ki"
  Reported: 204

Please look at the following compound next.
# query: Ki | item Cc1c(C(=O)N(CCCN2CCCCC2)c2ccccc2)oc2ccccc12 [KSCM-5] | system: 5-HT2B (Homo sapiens) 936
